Listed here are variants together with their documented protein stability index.
B1: PLAGL1 (parent)
chain: EKPPSGTKEKKHQCDHCERCFYTR

Variants of: B1
Assay name: protein stability index of a GFP-peptide fusion (GPS, HEK-293T) (PSI 1-6); higher = more stable;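 note: lentivirally expressed fusions sorted by FACS into six bins by GFP to DsRed ratio, PSI derived from sequencing read proportions per bin multiplied by bin number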
Experimental setup: c terminus: a fixed tail appended
Please reply with the number alone, leaving off any unit.

Example results:
>  <Var>
C14H

>  <protein stability index>
3.57

$$$$
>  <Var>
C14M

>  <protein stability index>
4.11

$$$$
>  <Var>
K8M

>  <protein stability index>
4.27

$$$$
>  <Var>
G6R

>  <protein stability index>
3.07

$$$$
>  <Var>
G6I

>  <protein stability index>
3.17

$$$$

Give the measured protein stability index of K8V .
3.9

Try E1R next.
3.02

Try F21K next.
4.39

Try T7H next.
3.85

Try C14V next.
4.55

Try K11R next.
3.71

Try G6Y next.
2.92

Try K10C next.
4.3

Try H12N next.
2.52

Try R24C next.
4.61

Try C14K next.
4.08

Try E1N next.
3.59

Try T7L next.
3.67

Values were extracted from the supplement of paper PMC10567573.
